system: Calcium sensing receptor (hCaSR) (Homo sapiens)
Sequence (P41180 20-1078): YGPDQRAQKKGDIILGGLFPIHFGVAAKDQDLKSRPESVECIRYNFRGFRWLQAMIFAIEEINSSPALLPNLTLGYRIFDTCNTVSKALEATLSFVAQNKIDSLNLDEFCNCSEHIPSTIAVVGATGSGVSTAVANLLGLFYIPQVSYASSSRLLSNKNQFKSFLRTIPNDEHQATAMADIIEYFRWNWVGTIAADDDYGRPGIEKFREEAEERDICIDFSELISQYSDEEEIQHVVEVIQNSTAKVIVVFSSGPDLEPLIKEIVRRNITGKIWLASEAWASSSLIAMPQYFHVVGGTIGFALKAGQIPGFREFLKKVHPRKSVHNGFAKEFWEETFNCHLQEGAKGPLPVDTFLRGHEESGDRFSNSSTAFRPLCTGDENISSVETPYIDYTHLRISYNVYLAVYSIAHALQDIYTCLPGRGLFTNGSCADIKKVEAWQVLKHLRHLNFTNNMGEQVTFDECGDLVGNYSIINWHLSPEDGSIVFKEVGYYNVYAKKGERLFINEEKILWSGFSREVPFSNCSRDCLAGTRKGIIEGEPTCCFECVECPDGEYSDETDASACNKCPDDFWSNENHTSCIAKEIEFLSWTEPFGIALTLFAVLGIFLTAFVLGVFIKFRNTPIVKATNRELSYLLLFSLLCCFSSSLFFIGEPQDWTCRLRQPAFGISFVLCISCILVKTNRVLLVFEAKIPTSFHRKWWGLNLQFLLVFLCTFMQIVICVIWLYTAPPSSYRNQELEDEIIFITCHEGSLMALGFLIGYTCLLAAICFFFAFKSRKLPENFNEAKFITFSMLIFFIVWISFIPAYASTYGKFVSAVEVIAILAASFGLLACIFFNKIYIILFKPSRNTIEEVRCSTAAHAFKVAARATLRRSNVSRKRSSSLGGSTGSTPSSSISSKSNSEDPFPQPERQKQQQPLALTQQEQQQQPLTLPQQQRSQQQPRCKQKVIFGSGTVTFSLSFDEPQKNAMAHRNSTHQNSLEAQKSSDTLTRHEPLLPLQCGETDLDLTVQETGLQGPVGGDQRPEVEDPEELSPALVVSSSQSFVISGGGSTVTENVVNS
test description: In-vitro assay of calcimimetics through modulation of calcium sensing receptor: increase in intracellular calcium [Ca2+]i, FLIPR
condition info: stably transfected HEK293 cells expressing hCaSR; Fluo4NW dye; 0.3 mM CaCl2; 8-point assay; read-out: EC50 Range
Description: In-Vitro Assay Method of Calcimemtics Through Modulation of Calcium Sensing Receptor (CaSR): The ability of the compounds to modulate Calcium sensing receptor is determined by measuring an increase in intracellular calcium [Ca^2+]i. Stably transfected HEK293 cells expressing hCaSR_pTriEx-3 hygro vector are developed. […] The activities of the compounds are measured in FLIPR using 0.3 mM CaCl2 in 20 mM HEPES base buffer. […]
pEC50: −log10 of the molar value. Where a name gives a salt, the structure may show the parent alone.
endpoint label: pEC50

COC(=O)c1ccc(N2CC(CN[C@H](C)c3cccc4ccccc34)Oc3ccccc32)cc1 (single isomer, unassigned) [Example 2a, hydrochloride]    6.70 to 7.30

Input line: GET /values?readout=pEC50&item= Cc1ccc(N2CC(C)(CN[C@H](C)c3cccc4ccccc34)Oc3ccccc32)cc1C(=O)O (single isomer, unassigned) [Example 86a, hydrochloride]
Output line: 6.70 to 7.30

Input line: GET /values?readout=pEC50&item= Cc1ccc(N2CC(CN[C@H](C)c3cccc4ccccc34)Oc3ccccc32)cc1C(=O)NCC(=O)O (single isomer, unassigned) [Example 79b, hydrochloride]
Output line: > 7.70

Input line: GET /values?readout=pEC50&item= C[C@@H](NCC1CN(c2ccc(C(=O)O)cc2)c2ccccc2O1)c1cccc2ccccc12 (stereo partly drawn) [Example 6, hydrochloride]
Output line: 6.70 to 7.30

Input line: GET /values?readout=pEC50&item= COc1ccc(N2CC(CN[C@H](C)c3cccc4ccccc34)Oc3ccccc32)cc1C(=O)O (single isomer, unassigned) [Example 67b, hydrochloride]
Output line: 6.70 to 7.30

Input line: GET /values?readout=pEC50&item= Cc1ccc(N2CC(CCN[C@H](C)c3cccc4ccccc34)Oc3ccccc32)c(C)c1C(=O)O (stereo partly drawn) [Example 148a, hydrochloride]
Output line: > 7.70

* * *

system: Calcium sensing receptor (hCaSR) (Homo sapiens, UniProt P41180)
Sequence (P41180 20-1078): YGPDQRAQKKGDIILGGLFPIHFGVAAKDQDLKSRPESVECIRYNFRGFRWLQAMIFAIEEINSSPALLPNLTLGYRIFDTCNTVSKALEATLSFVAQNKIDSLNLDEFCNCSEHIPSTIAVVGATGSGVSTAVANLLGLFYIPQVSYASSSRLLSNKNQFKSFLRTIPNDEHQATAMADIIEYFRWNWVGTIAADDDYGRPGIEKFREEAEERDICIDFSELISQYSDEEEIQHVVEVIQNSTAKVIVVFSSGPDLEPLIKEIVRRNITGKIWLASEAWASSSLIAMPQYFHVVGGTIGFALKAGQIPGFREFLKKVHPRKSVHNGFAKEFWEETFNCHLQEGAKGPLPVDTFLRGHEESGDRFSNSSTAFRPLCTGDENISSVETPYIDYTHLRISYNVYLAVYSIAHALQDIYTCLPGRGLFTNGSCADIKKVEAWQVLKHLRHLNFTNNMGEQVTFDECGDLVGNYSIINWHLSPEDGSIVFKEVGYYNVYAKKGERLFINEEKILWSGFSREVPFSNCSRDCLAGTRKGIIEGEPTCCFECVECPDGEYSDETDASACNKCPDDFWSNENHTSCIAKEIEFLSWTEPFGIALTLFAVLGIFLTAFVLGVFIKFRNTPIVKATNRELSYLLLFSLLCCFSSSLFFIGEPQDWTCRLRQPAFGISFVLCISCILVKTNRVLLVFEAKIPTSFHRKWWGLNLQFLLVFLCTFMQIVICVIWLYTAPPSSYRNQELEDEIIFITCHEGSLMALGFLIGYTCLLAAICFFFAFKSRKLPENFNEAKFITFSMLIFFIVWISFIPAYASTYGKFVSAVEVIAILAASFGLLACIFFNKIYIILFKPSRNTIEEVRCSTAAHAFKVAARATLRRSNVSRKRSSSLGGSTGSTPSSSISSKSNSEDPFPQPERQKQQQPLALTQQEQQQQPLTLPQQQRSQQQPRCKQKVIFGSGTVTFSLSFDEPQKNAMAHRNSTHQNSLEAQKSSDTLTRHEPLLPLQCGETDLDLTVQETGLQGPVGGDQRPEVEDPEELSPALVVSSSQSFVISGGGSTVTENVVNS
test description: In-vitro assay of calcimimetics through modulation of calcium sensing receptor: increase in intracellular calcium [Ca2+]i, FLIPR
condition info: stably transfected HEK293 cells expressing hCaSR; Fluo4NW dye; 0.3 mM CaCl2; 8-point assay; read-out: EC50 Range
Where a name gives a salt, the structure may show the parent alone.
endpoint label: EC50

Cc1ccc(N2CC(CN[C@H](C)c3cccc4ccccc34)Oc3ccccc32)cc1OC(C)(C)C(=O)O (single isomer, unassigned) [Example 77a, hydrochloride]    50 to 200 nM

Input line: GET /values?readout=EC50&system=Calcium sensing receptor (hCaSR) (Homo sapiens, UniProt P41180)&item= COC(=O)c1cc(N2CC(CN[C@H](C)c3cccc4ccccc34)Oc3ccccc32)ccc1C (single isomer, unassigned) [Example 31b]
Output line: < 20 nM

Input line: GET /values?readout=EC50&system=Calcium sensing receptor (hCaSR) (Homo sapiens, UniProt P41180)&item= Cc1ccc(N2C(=O)C(CN[C@H](C)c3cccc4ccccc34)Oc3ccccc32)cc1C(=O)O (single isomer, unassigned) [Example 87b, hydrochloride]
Output line: 20 to 50 nM

* * *

system: Calcium sensing receptor (hCaSR) (Homo sapiens, UniProt P41180)
Sequence (P41180 20-1078): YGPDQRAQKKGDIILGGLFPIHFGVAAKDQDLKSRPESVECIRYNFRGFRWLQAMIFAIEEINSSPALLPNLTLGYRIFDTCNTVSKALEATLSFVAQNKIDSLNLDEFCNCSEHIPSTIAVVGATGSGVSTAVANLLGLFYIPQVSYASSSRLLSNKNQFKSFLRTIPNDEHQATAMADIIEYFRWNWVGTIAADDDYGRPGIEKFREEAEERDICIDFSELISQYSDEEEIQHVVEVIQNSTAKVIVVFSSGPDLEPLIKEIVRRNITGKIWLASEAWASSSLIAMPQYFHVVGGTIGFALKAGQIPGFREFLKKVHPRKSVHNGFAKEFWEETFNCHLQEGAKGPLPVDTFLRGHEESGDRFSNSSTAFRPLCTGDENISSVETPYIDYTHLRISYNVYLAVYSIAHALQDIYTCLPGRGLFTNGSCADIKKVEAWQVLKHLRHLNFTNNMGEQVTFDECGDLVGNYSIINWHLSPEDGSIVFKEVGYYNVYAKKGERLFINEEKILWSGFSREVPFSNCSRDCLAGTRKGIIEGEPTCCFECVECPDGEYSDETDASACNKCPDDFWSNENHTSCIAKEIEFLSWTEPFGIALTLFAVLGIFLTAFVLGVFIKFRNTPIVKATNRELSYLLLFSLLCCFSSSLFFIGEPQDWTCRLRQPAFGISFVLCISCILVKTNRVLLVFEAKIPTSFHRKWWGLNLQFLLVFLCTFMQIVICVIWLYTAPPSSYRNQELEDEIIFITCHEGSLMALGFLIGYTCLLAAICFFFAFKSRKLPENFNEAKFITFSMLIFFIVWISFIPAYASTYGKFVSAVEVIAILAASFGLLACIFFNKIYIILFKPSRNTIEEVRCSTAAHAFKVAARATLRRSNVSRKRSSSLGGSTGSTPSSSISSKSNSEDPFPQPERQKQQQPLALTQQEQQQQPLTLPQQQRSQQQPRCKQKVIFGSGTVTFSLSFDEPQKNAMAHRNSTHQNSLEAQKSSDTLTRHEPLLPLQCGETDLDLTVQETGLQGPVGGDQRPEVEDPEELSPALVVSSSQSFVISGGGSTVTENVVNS
test description: In-vitro assay of calcimimetics through modulation of calcium sensing receptor: increase in intracellular calcium [Ca2+]i, FLIPR
condition info: stably transfected HEK293 cells expressing hCaSR; Fluo4NW dye; 0.3 mM CaCl2; 8-point assay; read-out: EC50 Range
pEC50: −log10 of the molar value. Counter-ions that a name gives are not always drawn.
endpoint label: pEC50

Example entries and their recorded answers appear below.
Cc1ccc(N2CC(CN[C@H](C)c3cccc4ccccc34)Oc3ccccc32)cc1OCC(=O)O (single isomer, unassigned) [Example 76a, hydrochloride]    > 7.70
C[C@@H](NCCC1CN(c2ccc(C(F)(F)F)c(C(=O)O)c2)c2ccccc2O1)c1cccc2ccccc12 (some centres unmarked) [Example 135a, hydrochloride]    > 7.70
COc1cc(C(=O)O)cc(N2CC(CN[C@H](C)c3cccc4ccccc34)Oc3ccccc32)c1 (some centres unmarked) [Example 54, hydrochloride]    6.70 to 7.30

Input line: GET /values?readout=pEC50&item= CCOC(=O)c1c(C)ccc(N2CC(CN[C@H](C)c3cccc4ccccc34)Oc3ccccc32)c1C (single isomer, unassigned) [Example 24b]
Output line: 7.30 to 7.70
